These measurements were taken from patent US20250382363A1.

target-entity: pre-existing anti-drug antibodies (ADA) present in human sera
assay-details: pre-existing ADA ELISA, scFv coated, human sera unspiked vs spiked
reported-endpoint: Mean No of serum samples >30% inhibition (30% CCP) with SCP (serum samples)
Note: the reply should be a number with no unit written.

// worked examples, Mean No of serum samples >30% inhibition (30% CCP) with SCP (serum samples) included
binder: PRO2949 (scFv 37-20-B03-sc09.1_(T146E)) (scFv, PRO2230 variant; VH substitution, AHo numbering; also called PRO2230 T146E) scFv: DIQMTQSPASLSASVGDRVTITCQASQSIGTYLAWYQQKPGKPPKLLIYRAFILASGVPSRFSGSGSGTDFTLTISSLQPEDFATYYCQSNFYSDSTTIGPNAFGTGTKVTVLGGGGGSGGGGSGGGGSGGGGSEVQLVESGGGLVQPGGSLRLSCAASGFSFNSDYWIYWVRQAPGKGLEWIASIYGGSSGNTQYASWAQGRFTISRDNSKNTVYLQMNSLRAEDTAVYFCARGYVDYGGATDLWGQGTLVEVSS
value-reported: 1
--
binder: PRO2952 (scFv 37-20-B03-sc09.1_(T101S)) (scFv, PRO2230 variant; VH substitution, AHo numbering; also called PRO2230 T101S) scFv: DIQMTQSPASLSASVGDRVTITCQASQSIGTYLAWYQQKPGKPPKLLIYRAFILASGVPSRFSGSGSGTDFTLTISSLQPEDFATYYCQSNFYSDSTTIGPNAFGTGTKVTVLGGGGGSGGGGSGGGGSGGGGSEVQLVESGGGLVQPGGSLRLSCAASGFSFNSDYWIYWVRQAPGKGLEWIASIYGGSSGNTQYASWAQGRFTISRDNSKNTVYLQMNSLRAEDSAVYFCARGYVDYGGATDLWGQGTLVTVSS
value-reported: 5
--
binder: PRO3343 (scFv 37-20-B03-sc09.1_(T101R, T146E)) (scFv, PRO2230 variant; VH substitutions, AHo numbering; also called PRO2230 T101R-T146E) scFv: DIQMTQSPASLSASVGDRVTITCQASQSIGTYLAWYQQKPGKPPKLLIYRAFILASGVPSRFSGSGSGTDFTLTISSLQPEDFATYYCQSNFYSDSTTIGPNAFGTGTKVTVLGGGGGSGGGGSGGGGSGGGGSEVQLVESGGGLVQPGGSLRLSCAASGFSFNSDYWIYWVRQAPGKGLEWIASIYGGSSGNTQYASWAQGRFTISRDNSKNTVYLQMNSLRAEDRAVYFCARGYVDYGGATDLWGQGTLVEVSS
value-reported: 0
--
binder: PRO2938 (scFv 54-21-H03-sc01_(L12A, T101S, L144A, T146Q)) (scFv, PRO1922 variant; VH substitutions, AHo numbering; also called PRO1922 L12A-T101S-L144A-T146Q) scFv: DIQMTQSPSSLSASVGDRVTITCQASESIYSSLAWYQQKPGKAPKLLIYLASTLASGVPSRFSGSGSGTDFTLTISSLQPEDFATYYCQSTDYTTSTHRNSFGTGTKVTVLGGGGGSGGGGSGGGGSGGGGSEVQLVESGGGAVQPGGSLRLSCAASGFSFSTTYYMCWVRQAPGKGLEWIGCTNTASSVRTYYATWAKGRFTISRDNSKNTVYLQMNSLRAEDSAVYYCARDMGFADYALNLWGQGTAVQVSS
value-reported: 0

Here is the next item to consider.
Prompt line: I would be grateful if you could share the reported Mean No of serum samples >30% inhibition (30% CCP) with SCP (serum samples) for PRO3323 (scFv 54-21-H03-sc01_(L12A, T101Q, L144A, T146Q)) (scFv, PRO1922 variant; VH substitutions, AHo numbering; also called PRO1922 L12A-T101Q-L144A-T146Q) scFv: DIQMTQSPSSLSASVGDRVTITCQASESIYSSLAWYQQKPGKAPKLLIYLASTLASGVPSRFSGSGSGTDFTLTISSLQPEDFATYYCQSTDYTTSTHRNSFGTGTKVTVLGGGGGSGGGGSGGGGSGGGGSEVQLVESGGGAVQPGGSLRLSCAASGFSFSTTYYMCWVRQAPGKGLEWIGCTNTASSVRTYYATWAKGRFTISRDNSKNTVYLQMNSLRAEDQAVYYCARDMGFADYALNLWGQGTAVQVSS .
Response line: 0
